# Tested on: KRAS PDC tumor spheroids (HUVEC+MSC), viability;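 note: spheroids exposed to compounds for seven days before readout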
# test: Anticancer human tumor 254851-301-R-J1-PDC patient-derived colon carcinoma cell line growth inhibition [KRAS2]
# condition.description: curve of first compound; second compound 0.316 µM
IC50 under 7000 nM gets 1, anything at or over 7000 nM gets 0.

compound	class.name
COc1cc2nccc(Oc3ccc(NC(=O)C4(C(=O)Nc5ccc(F)cc5)CC4)cc3)c2cc1OC + CNCc1ccccc1-c1csc(C(C)Nc2nc(C)nc3cc(OC)c(OC)cc23)c1	0
CC1OCC2(CCN(c3cnc(Sc4ccnc(N)c4Cl)c(N)n3)CC2)C1N (stereo not given) + C=CC(=O)N1CCN(c2nc(OCC3CCCN3C)nc3c2CCN(c2cccc4cccc(C)c24)C3)CC1CC#N	0
O=C(c1cc(Cc2n[nH]c(=O)c3ccccc23)ccc1F)N1CCN(C(=O)C2CC2)CC1 + COc1cc2nc(C)nc(NC(C)c3cc(N)cc(C(F)(F)F)c3)c2cc1OC1CCOC1	0
COc1cc2nccc(Oc3ccc(NC(=O)C4(C(=O)Nc5ccc(F)cc5)CC4)cc3)c2cc1OC + C=CC(=O)N1CCN(c2nc(OCC3CCCN3C)nc3c2CCN(c2cccc4cccc(C)c24)C3)CC1CC#N	0
CC(=O)Nc1cccc(-n2c(=O)n(C3CC3)c(=O)c3c(Nc4ccc(I)cc4F)n(C)c(=O)c(C)c32)c1 + C=CC(=O)N1CCN(c2nc(OCC3CCCN3C)nc3c2CCN(c2cccc4cccc(C)c24)C3)CC1CC#N	1
COc1cc(Nc2ncc3c(n2)-c2ccc(Cl)cc2C(c2c(F)cccc2OC)=NC3)ccc1C(=O)O + C=CC(=O)N1CCN(c2nc(=O)n(-c3c(C)ccnc3C(C)C)c3nc(-c4c(O)cccc4F)c(F)cc23)C(C)C1	1
CC(=O)OC12COC1CC(O)C1(C)C(=O)C(O)C3=C(C)C(OC(=O)C(O)C(NC(=O)OC(C)(C)C)c4ccccc4)CC(O)(C(OC(=O)c4ccccc4)C21)C3(C)C (stereo not given) + CNCc1ccccc1-c1csc(C(C)Nc2nc(C)nc3cc(OC)c(OC)cc23)c1	1
COC(=O)c1ccc2c(C(=Nc3ccc(N(C)C(=O)CN4CCN(C)CC4)cc3)c3ccccc3)c(O)[nH]c2c1 + CC1OCC2(CCN(c3cnc(Sc4ccnc(N)c4Cl)c(N)n3)CC2)C1N	0
COc1cc(Nc2ncc3c(n2)-c2ccc(Cl)cc2C(c2c(F)cccc2OC)=NC3)ccc1C(=O)O + CNCc1ccccc1-c1csc(C(C)Nc2nc(C)nc3cc(OC)c(OC)cc23)c1	1
